- TESTED_SYSTEM: Alpha-2A adrenergic receptor (Rattus norvegicus)
- Sequence (P22909 whole entry): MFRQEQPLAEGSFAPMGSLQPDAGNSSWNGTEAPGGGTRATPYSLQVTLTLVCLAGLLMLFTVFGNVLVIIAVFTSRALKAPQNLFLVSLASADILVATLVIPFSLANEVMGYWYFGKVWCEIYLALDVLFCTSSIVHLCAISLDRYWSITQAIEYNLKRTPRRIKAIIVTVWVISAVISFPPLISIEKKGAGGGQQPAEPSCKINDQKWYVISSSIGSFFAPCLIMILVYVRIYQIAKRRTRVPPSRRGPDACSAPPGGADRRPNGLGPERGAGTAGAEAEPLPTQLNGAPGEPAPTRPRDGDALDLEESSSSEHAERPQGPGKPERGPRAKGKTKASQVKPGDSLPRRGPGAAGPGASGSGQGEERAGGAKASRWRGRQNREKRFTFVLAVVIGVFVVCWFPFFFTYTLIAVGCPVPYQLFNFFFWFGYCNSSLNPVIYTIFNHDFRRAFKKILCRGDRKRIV
OUTCOME_MEASURE: log10 Ki (log10 of the value in nM)
Heads up: the numbers are on a log10 scale; they represent Ki in nM.

Cc1sc(C)c2c1CCC=C2c1c[nH]cn1 ... 1.40

// for each compound below, give its log10 Ki
1. c1cc(-c2c[nH]cn2)c2ccsc2c1
2. c1nc(C2CCCc3sccc32)c[nH]1 (configuration not stated)
3. C1=C(c2c[nH]cn2)c2sccc2CC1

1: 2.44; 2: 1.43; 3: 2.35

// for each compound below, give its log10 Ki
1. C1=C(c2c[nH]cn2)c2ccsc2CC1
2. Cc1cccc([C@H](C)c2cnc[nH]2)c1C [DEXMEDETOMIDINE]
3. Cc1sc(C)c2c1CCCC2c1c[nH]cn1 (configuration not stated)

[2.40, 0.70, 1.83]

====

- TESTED_SYSTEM: Adrenergic receptor alpha-1 (Rattus norvegicus, UniProt P15823+P23944+P43140)
- PROTOCOL_NOTES: in vitro alpha-1 adrenergic receptor binding assay from rats, using RX 821002 as the displaceable ligand
Would you kindly list pKi for each of these compounds?
Answers are plain numbers, as −log10 of the molar value.

Worked examples, 2 compounds total:
C1=C(c2c[nH]cn2)c2ccsc2CC1 ... 6.35
c1nc(C2CCCc3sccc32)c[nH]1 (configuration not stated) ... 6.96

// for each compound below, give its pKi
1. c1cc(-c2c[nH]cn2)c2ccsc2c1
2. Cc1sc(C)c2c1CCCC2c1c[nH]cn1 (configuration not stated)
3. c1nc(C2CCCc3ccsc32)c[nH]1 (configuration not stated)
4. Cc1sc(C)c2c1CCC=C2c1c[nH]cn1
5. C1=C(c2c[nH]cn2)c2sccc2CC1

1: 6.46; 2: 7.32; 3: 7.04; 4: 6.96; 5: 6.40

====

- TESTED_SYSTEM: Alpha-2B adrenergic receptor (Rattus norvegicus)
- Sequence (P19328 whole entry): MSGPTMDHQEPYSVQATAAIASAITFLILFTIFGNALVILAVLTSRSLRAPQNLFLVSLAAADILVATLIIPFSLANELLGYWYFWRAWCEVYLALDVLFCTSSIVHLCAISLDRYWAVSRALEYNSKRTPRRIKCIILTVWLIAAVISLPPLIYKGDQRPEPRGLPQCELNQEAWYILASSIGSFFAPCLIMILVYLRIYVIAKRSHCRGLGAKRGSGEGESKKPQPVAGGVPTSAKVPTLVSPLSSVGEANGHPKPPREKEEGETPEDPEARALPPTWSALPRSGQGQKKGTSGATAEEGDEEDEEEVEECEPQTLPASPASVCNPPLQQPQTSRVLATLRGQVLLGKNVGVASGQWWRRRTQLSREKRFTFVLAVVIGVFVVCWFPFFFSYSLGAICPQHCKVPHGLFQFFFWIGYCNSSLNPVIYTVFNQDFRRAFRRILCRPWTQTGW
Decision: Ki beneath 0.6 µM gives Met; Ki meeting or exceeding 0.6 µM gives Not met.

c1nc(C2CCCc3sccc32)c[nH]1 (stereo unspecified) ... Met
Cc1sc(C)c2c1CCCC2c1c[nH]cn1 (stereo unspecified) ... Met

Is Ki strictly under 0.6 µM for the entry "C1=C(c2c[nH]cn2)c2sccc2CC1" ?
Not met

Now the compound "Cc1sc(C)c2c1CCC=C2c1c[nH]cn1"
Met

Now the compound "C1=C(c2c[nH]cn2)c2ccsc2CC1"
Not met

Now the compound "c1cc(-c2c[nH]cn2)c2ccsc2c1"
Not met
